// provenance: paper PMC3025495

test system: human hematopoietic progenitors: common myeloid precursors; assay: Methylcellulose-based in vitro colony forming assay, common myeloid precursors; format: cell-based; details: read-out: IC50, growth inhibition of common myeloid precursors
Assay endpoint: pIC50
By convention, pIC50 is the negative base-10 log of a molar concentration.

Suppose we examine the compound CN(C)CC[C@H](CSc1ccccc1)Nc1ccc(S(=O)(=O)NC(=O)c2ccc(N3CCN(Cc4ccccc4-c4ccc(Cl)cc4)CC3)cc2)cc1[N+](=O)[O-] [ABT-737] ; what pIC50 value has been reported?
6.05

====

experiment: clinical; conditions: human, in vivo
Assay endpoint: half-life

Look up half-life for this compound: CC1(C)CCC(c2ccc(Cl)cc2)=C(CN2CCN(c3ccc(C(=O)NS(=O)(=O)c4ccc(N[C@H](CCN5CCOCC5)CSc5ccccc5)c(S(=O)(=O)C(F)(F)F)c4)cc3)CC2)C1
~17 h
